- tgt: Protein cereblon/Cyclin-dependent kinase 2/Cyclin-dependent kinase 9 (Homo sapiens, UniProt P24941+P50750+Q96SW2)
- assayNotes: Protac activity at CRBN/CDK2/CDK9 in AR-negative human PC3 cells assessed as induction of CDK9 protein degradation after 24 hrs by Western blot analysis
- Type: cell-based
- particulars: PC-3
Active and inactive are the calls of the source. The calls are words filed in the database; no cut-off is given here.
endpoint: Activity

The value of Activity measured for the compound O=C(CCC(=O)N1CCN(Cc2ccc(NC(=O)c3n[nH]cc3Nc3ncnc4[nH]ccc34)cc2)CC1)NCCCCNC(=O)COc1cccc2c1C(=O)N(C1CCC(=O)NC1=O)C2=O (centres undefined) turned out to be inactive

The value of Activity measured for the compound O=C(CCC(=O)N1CCN(Cc2ccc(NC(=O)c3n[nH]cc3Nc3ncnc4[nH]ccc34)cc2)CC1)NCCCCCCNC(=O)COc1cccc2c1C(=O)N(C1CCC(=O)NC1=O)C2=O (centres undefined) turned out to be inactive

The value of Activity measured for the compound O=C(CCC(=O)N1CCN(Cc2ccc(NC(=O)c3n[nH]cc3Nc3ncnc4[nH]ccc34)cc2)CC1)NCCCOCCOCCOCCCNC(=O)COc1cccc2c1C(=O)N(C1CCC(=O)NC1=O)C2=O (centres undefined) turned out to be inactive

* * *

- tgt: Protein cereblon/Cyclin-dependent kinase 9 (Homo sapiens) (UniProt P50750+Q96SW2)
- Sequence (P50750 whole entry, looked up): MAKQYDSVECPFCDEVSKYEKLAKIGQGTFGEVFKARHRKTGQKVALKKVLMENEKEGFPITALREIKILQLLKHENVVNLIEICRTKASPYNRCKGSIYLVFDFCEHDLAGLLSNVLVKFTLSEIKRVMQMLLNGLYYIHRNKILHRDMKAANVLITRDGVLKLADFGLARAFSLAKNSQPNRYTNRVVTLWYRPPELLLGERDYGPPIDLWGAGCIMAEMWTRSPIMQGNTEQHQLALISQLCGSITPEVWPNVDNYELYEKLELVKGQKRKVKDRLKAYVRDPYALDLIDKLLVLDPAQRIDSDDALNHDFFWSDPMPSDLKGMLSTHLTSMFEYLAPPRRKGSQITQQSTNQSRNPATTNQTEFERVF
- Sequence (Q96SW2 whole entry, looked up): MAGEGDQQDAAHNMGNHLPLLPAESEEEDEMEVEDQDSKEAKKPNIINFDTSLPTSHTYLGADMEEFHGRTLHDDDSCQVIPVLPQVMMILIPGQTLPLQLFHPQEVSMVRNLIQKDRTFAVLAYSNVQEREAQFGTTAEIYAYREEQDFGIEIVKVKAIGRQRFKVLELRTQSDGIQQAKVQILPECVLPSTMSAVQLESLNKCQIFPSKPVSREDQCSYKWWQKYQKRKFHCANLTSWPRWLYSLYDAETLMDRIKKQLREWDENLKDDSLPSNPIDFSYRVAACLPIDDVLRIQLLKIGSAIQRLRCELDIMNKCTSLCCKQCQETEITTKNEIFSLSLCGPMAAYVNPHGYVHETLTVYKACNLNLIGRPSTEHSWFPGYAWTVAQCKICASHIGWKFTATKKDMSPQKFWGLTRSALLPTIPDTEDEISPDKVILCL
- assayNotes: Protac activity at CRBN/CDK9 in AR-negative human PC3 cells assessed as induction of CDK9 protein degradation at 1 uM after 12 hrs by Western blot analysis
- Type: cell-based
- particulars: PC-3
Activity calls are given as the source filed them. The calls are words filed in the database; no cut-off is given here.
# valid calls are T for active, F for inactive; nothing else

Field: example entries. Status: answers known.
Inquiry: Write down the call the test reported for this molecule. Item: O=C(COc1cccc2c1C(=O)N(C1CCC(=O)NC1=O)C2=O)NCCOCCOCC(=O)N1CCC(NC(=O)c2n[nH]cc2NC(=O)c2c(Cl)cccc2Cl)CC1 (stereo not given)
Reply text: F

Inquiry: Write down the call the test reported for this molecule. Item: O=C(COc1cccc2c1C(=O)N(C1CCC(=O)NC1=O)C2=O)NCCCCCC(=O)N1CCC(NC(=O)c2n[nH]cc2NC(=O)c2c(Cl)cccc2Cl)CC1 (stereo not given)
Reply text: F

Inquiry: Write down the call the test reported for this molecule. Item: O=C(CCC(=O)N1CCN(Cc2ccc(NC(=O)c3n[nH]cc3Nc3ncnc4[nH]ccc34)cc2)CC1)NCCNC(=O)COc1cccc2c1C(=O)N(C1CCC(=O)NC1=O)C2=O (stereo not given)
Reply text: T

Inquiry: Write down the call the test reported for this molecule. Item: O=C(CCC(=O)N1CCN(Cc2ccc(NC(=O)c3n[nH]cc3Nc3ncnc4[nH]ccc34)cc2)CC1)NCCCCCCNc1cccc2c1C(=O)N(C1CCC(=O)NC1=O)C2=O (stereo not given)
Reply text: T

***
Inquiry: Write down the call the test reported for this molecule. Item: O=C(COc1cccc2c1C(=O)N(C1CCC(=O)NC1=O)C2=O)NCCOCCOCC(=O)N1CCN(Cc2ccc(NC(=O)c3n[nH]cc3Nc3ncnc4[nH]ccc34)cc2)CC1 (stereo not given)
Reply text: T

* * *

- tgt: CDK2/Cyclin A2 (Homo sapiens, UniProt P24941)
- assayNotes: Inhibition of tracer K10 binding to NanoLuc-CDK2/Cyclin A (unknown origin) expressed in human HEK293 cells after 1 hr in presence of ATP by NanoBRET assay
endpoint: IC50 (nM)
State the answer as a number, implicitly in nM.

The value of IC50 measured for the compound O=C(CCC(=O)N1CCN(Cc2ccc(NC(=O)c3n[nH]cc3Nc3ncnc4[nH]ccc34)cc2)CC1)NCCNc1cccc2c1C(=O)N(C1CCC(=O)NC1=O)C2=O (stereo unspecified) turned out to be 7.42
